molecules and their reported minimum inhibitory concentration
tested on: Escherichia coli; test: minimum inhibitory concentration (MIC); settings: isolate (source animal id): 173

Answered examples (2):
{"molecule": "NC[C@@H]1O[C@H](O[C@H]2[C@@H](O)[C@H](O[C@@H]3[C@@H](O)[C@H](N)C[C@H](N)[C@H]3O[C@H]3O[C@H](CN)[C@@H](O)[C@H](O)[C@H]3N)O[C@@H]2CO)[C@H](N)[C@@H](O)[C@@H]1O", "result": "≤ 4 µg/mL"}
{"molecule": "CC[C@H]1OC(=O)C[C@@H](O)[C@H](C)[C@@H](O[C@@H]2O[C@H](C)[C@@H](O)[C@H](N(C)C)[C@H]2O)[C@@H](CCN2CCCCC2)C[C@@H](C)C(=O)/C=C/C(C)=C/[C@@H]1CN1CCCCC1", "result": "4 µg/mL"}

input: # value lookup — system Escherichia coli, readout minimum inhibitory concentration, item `C=C[C@]1(C)C[C@@H](OC(=O)CSCCN(CC)CC)[C@]2(C)[C@H](C)CC[C@]3(CCC(=O)[C@H]32)[C@@H](C)[C@@H]1O`
output: > 32 µg/mL

input: Record lookup: for Escherichia coli, what minimum inhibitory concentration belongs to CNC(C)C1CCC(N)C(OC2C(N)CC(N)C(OC3OCC(C)(O)C(NC)C3O)C2O)O1 (centres undefined) ?
output: ≤ 1 µg/mL

###

Recorded minimum inhibitory concentration for the following compounds
tested on: Escherichia coli; experiment: minimum inhibitory concentration (MIC); conditions: isolate (source animal id): 98
Could you give me the number in µg/mL? Just the number is fine.

{"testSmiles": "CS(=O)(=O)c1ccc([C@@H](O)[C@@H](CF)NC(=O)C(Cl)Cl)cc1", "minimum inhibitory concentration (µg/mL)": 2}

Here is the next item to consider.
input: Tell me reported minimum inhibitory concentration for `CC1(C)S[C@@H]2[C@H](NC(=O)[C@H](N)c3ccccc3)C(=O)N2[C@H]1C(=O)O` , tested with Escherichia coli.
output: 4

###

test system: Enterococcus spp.; assay: minimum inhibitory concentration (MIC); details: isolate (source animal id): 252
Listed next: entries and their corresponding minimum inhibitory concentration.

Some solved cases for reference:
{"testSmiles": "CCCN1C[C@H](C)[C@@H](O)[C@](C)(O)[C@@H](CC)OC(=O)[C@H](C)[C@@H](O[C@H]2C[C@@](C)(OC)[C@@H](O)[C@H](C)O2)[C@H](C)[C@@H](O[C@@H]2O[C@H](C)C[C@H](N(C)C)[C@H]2O)[C@](C)(O)C[C@H]1C", "quantity": "minimum inhibitory concentration", "result": "> 8 µg/mL"}
{"testSmiles": "CCCNC[C@]1(O)[C@H](C)O[C@@H](O[C@H]2[C@H](C)[C@@H](O[C@@H]3O[C@H](C)C[C@H](N(C)C)[C@H]3O)[C@](C)(O)C[C@@H](C)CN[C@H](C)[C@@H](O)[C@](C)(O)[C@@H](CC)OC(=O)[C@@H]2C)C[C@@]1(C)OC", "quantity": "minimum inhibitory concentration", "result": "> 64 µg/mL"}

input: Bench note: what minimum inhibitory concentration did `CN[C@@H]1[C@H](O)[C@H](NC)[C@H]2O[C@@]3(O)C(=O)C[C@@H](C)O[C@H]3O[C@@H]2[C@H]1O` show?
output: 64 µg/mL

input: Any idea what its minimum inhibitory concentration is? The molecule is `COc1cc(NS(=O)(=O)c2ccc(N)cc2)nc(OC)n1`
output: > 256 µg/mL

input: Any idea what its minimum inhibitory concentration is? The molecule is `CN(C)[C@@H]1C(O)=C(C(N)=O)C(=O)[C@@]2(O)C(O)=C3C(=O)c4c(O)cccc4[C@@](C)(O)[C@H]3C[C@@H]12`
output: > 8 µg/mL

input: What measured minimum inhibitory concentration goes with `CC[C@H]1OC(=O)C[C@@H](O)[C@H](C)[C@@H](O[C@@H]2O[C@H](C)[C@@H](O[C@H]3C[C@@](C)(O)[C@@H](O)[C@H](C)O3)[C@H](N(C)C)[C@H]2O)[C@@H](CC=O)C[C@@H](C)C(=O)/C=C/C(C)=C/[C@@H]1CO[C@@H]1O[C@H](C)[C@@H](O)[C@@H](OC)[C@H]1OC` ?
output: > 32 µg/mL
